molecular target: human TLR7 (Homo sapiens, UniProt Q9NYK1); construct: host or cells: HEK293 (HEK-Blue hTLR7); assay: HEK293-Blue hTLR7 Reporter Assay (QUANTI-BLUE, SEAP readout); assay type: cell-based; details: HEK-Blue-hTLR7 cells, 24 hrs treatment, Table 1, B1-B232
Sequence (Q9NYK1 27-1049): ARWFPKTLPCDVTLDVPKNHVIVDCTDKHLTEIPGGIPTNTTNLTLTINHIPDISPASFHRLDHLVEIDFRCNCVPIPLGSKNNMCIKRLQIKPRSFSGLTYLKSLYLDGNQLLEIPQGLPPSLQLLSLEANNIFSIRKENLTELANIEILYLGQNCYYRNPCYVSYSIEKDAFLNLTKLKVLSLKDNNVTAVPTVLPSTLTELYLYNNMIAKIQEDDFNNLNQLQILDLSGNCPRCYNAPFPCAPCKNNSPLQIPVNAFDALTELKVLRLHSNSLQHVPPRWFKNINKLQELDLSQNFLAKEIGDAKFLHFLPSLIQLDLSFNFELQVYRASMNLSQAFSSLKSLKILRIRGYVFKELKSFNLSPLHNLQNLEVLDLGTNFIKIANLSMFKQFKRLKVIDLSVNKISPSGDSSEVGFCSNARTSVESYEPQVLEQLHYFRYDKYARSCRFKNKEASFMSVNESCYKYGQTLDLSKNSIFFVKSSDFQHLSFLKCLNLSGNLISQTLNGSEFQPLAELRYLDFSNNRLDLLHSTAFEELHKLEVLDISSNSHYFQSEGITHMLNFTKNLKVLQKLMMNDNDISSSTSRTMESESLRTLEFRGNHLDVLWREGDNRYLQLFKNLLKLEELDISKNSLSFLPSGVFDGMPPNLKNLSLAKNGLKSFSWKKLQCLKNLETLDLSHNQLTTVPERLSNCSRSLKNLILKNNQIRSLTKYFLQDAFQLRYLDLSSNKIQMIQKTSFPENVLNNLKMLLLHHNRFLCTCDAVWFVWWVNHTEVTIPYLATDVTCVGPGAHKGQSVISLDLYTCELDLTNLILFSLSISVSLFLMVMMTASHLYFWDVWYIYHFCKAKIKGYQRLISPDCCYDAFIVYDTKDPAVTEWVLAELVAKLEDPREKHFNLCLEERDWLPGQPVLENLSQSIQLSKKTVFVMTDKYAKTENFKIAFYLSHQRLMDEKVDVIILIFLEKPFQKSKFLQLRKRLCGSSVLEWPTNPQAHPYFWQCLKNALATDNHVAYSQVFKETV
Experimental readout: EC50 (nM)

Compound | Target | Endpoint value
CCC[C@H](C)Nc1nc(N)c2ncc(Cc3cnc(N4CCNCC4)c(C)c3)n2n1 (single isomer, unassigned) | human TLR7 (Homo sapiens, UniProt Q9NYK1) | 6.5
CCCCOc1nc(N)c2ncc(Cc3cnc(N4CCN(C(=O)[C@@H](N)[C@@H](C)CC)CC4)c(C)c3)n2n1 | human TLR7 (Homo sapiens, UniProt Q9NYK1) | 336
COCCOc1nc(N)c2ncc(Cc3cnc(N4CCNCC4)c(Cl)c3)n2n1 | human TLR7 (Homo sapiens, UniProt Q9NYK1) | 1230
Cc1cc(Cc2cnc3c(N)nc(OC(C)C)nn23)cnc1N1CCNCC1 | human TLR7 (Homo sapiens, UniProt Q9NYK1) | 146
CCC[C@H](C)Nc1nc(N)c2ncc(Cc3cnc(N4CCN(C(=O)CN(C)C)CC4)c(C)c3)n2n1 | human TLR7 (Homo sapiens, UniProt Q9NYK1) | 2.4
CCCC(CCC)Nc1nc(N)c2ncc(Cc3cnc(N4CCNCC4)c(C)c3)n2n1 | human TLR7 (Homo sapiens, UniProt Q9NYK1) | 7.9
CCCC(CCC)Oc1nc(N)c2ncc(Cc3cnc(N4CCN(C(=O)CN(C)C)CC4)c(C)c3)n2n1 | human TLR7 (Homo sapiens, UniProt Q9NYK1) | 3.6
CCC(CC)Oc1nc(N)c2ncc(Cc3cnc(N4CCC(N(C)C)CC4)c(C)c3)n2n1 | human TLR7 (Homo sapiens, UniProt Q9NYK1) | 29
